- assay method text: logP by HPLC on reversed-phase column (EEC Directive 79/831 Annex V.A8)
- assay conditions: HPLC on a reversed-phase column (C 18), EEC Directive 79/831 Annex V.A8
API: label(entry) gives Condition met if the entry's logP is strictly smaller than 4; on equality or larger values it gives Condition not met.

Some solved entries appear below for comparison.
- chemical smiles: "C/C(=N\\OC(C)(C)C)c1ccc(-c2cccc(NC(=O)c3c(C(F)F)nn(C)c3Cl)c2)cc1"
  label: "Condition not met"
- chemical smiles: "Cn1nc(C(F)F)c(C(=O)Nc2cccc(Sc3ccc(C(C)(C)C)cc3)c2)c1Cl"
  label: "Condition not met"
- chemical smiles: "Cn1nc(C(F)F)c(C(=O)Nc2ccc(-c3cc(Cl)cc(Cl)c3)cc2)c1F"
  label: "Condition not met"
- chemical smiles: "Cn1nc(C(F)F)c(C(=O)Nc2cccc(OCc3ccccc3)c2)c1Cl"
  label: "Condition met"

### Prompt Dear colleague, could you confirm whether logP of `Cn1nc(C(F)F)c(C(=O)Nc2cccc(Oc3ccccc3)c2)c1F` falls below 4? Thanks.
### Response Condition met

### Prompt Please check: logP for `Cn1nc(C(F)F)c(C(=O)Nc2cccc(C#Cc3ccccc3)c2)c1F` , strictly under 4 or not?
### Response Condition met

### Prompt Below 4 on logP? Entry `Cn1nc(C(F)F)c(C(=O)Nc2cccc(Sc3ccccc3)c2)c1F`
### Response Condition met

### Prompt Threshold test, logP < 4: `Cn1nc(C(F)F)c(C(=O)Nc2ccc(C3CCCCC3)cc2)c1F`
### Response Condition not met

----------
- assay method text: logP by HPLC on reversed-phase column (EEC Directive 79/831 Annex V.A8)
- assay conditions: HPLC on reversed-phase column (C 18), EEC Directive 79/831 Annex V.A8
Listed next: entries and their corresponding logP.

- compound: "CC(C)C1C2CCC1c1c(NC(=O)c3c(C(F)F)nn(C)c3F)cccc12 (stereo not drawn)"
  logP: 4.41
- compound: "Cn1nc(C(F)F)c(C(=O)Nc2ccccc2SCC2CC2(Cl)Cl)c1F (stereo not drawn)"
  logP: 3.27

### Prompt // query logP value for entry `Cn1nc(C(F)F)c(C(=O)Nc2ccccc2-c2cccc(Cl)c2)c1Cl`
### Response 3.87

### Prompt logP lookup needed for `Cc1cccc(CCC(C)(C)C)c1NC(=O)c1c(C(F)F)nn(C)c1F` , thanks.
### Response 3.85

### Prompt Value lookup for logP; key = `CC(C)Oc1cccc(-c2cccc(NC(=O)c3c(C(F)F)nn(C)c3Cl)c2)c1`
### Response 4.21

### Prompt Can you share its logP? I mean this compound: `Cn1nc(C(F)F)c(C(=O)Nc2cccc(-c3ccc(Cl)cc3)c2)c1F`
### Response 3.83

----------
- assay method text: logP by HPLC on reversed-phase column (EEC Directive 79/831 Annex V.A8)
- assay conditions: HPLC on reversed-phase column (C 18), EEC Directive 79/831 Annex V.A8
We begin with a simple list: items and their reported logP.
Answer as a number with no unit attached.

### Prompt Using the record for `Cc1cc(C)cc(-c2cccc(NC(=O)c3c(C(F)F)nn(C)c3F)c2)c1` , report its logP.
### Response 4.11

### Prompt # get_value(readout='logP', item= `Cn1nc(C(F)F)c(C(=O)Nc2ccccc2-c2ccc(F)c(Cl)c2)c1F` )
### Response 3.60

### Prompt Would you kindly share the measured logP for `CC(C)COc1ccc(-c2cccc(NC(=O)c3c(C(F)F)nn(C)c3Cl)c2)cc1` ?
### Response 4.83

### Prompt Fill blank: measured logP of the compound `Cn1nc(C(F)F)c(C(=O)Nc2ccc3c(c2)OC(F)(F)C(F)(F)O3)c1F` is ____.
### Response 3.58

### Prompt Dear colleague, I am looking for the recorded logP of the following compound: `Cn1nc(C(F)F)c(C(=O)Nc2cccc(-c3ccc(C(C)(C)C)cc3)c2)c1Cl`
### Response 4.93

### Prompt Please give the measured logP for this compound: `CC(C)CCc1ccccc1NC(=O)c1c(C(F)F)nn(C)c1F`
### Response 3.60

### Prompt Give the measured logP of `Cc1cc(C)cc(-c2cccc(NC(=O)c3c(C(F)F)nn(C)c3Cl)c2)c1` .
### Response 4.34

### Prompt Look up logP for this compound: `Cn1nc(C(F)F)c(C(=O)Nc2ccccc2C(C)(C)C)c1F`
### Response 2.98

### Prompt For `Cn1nc(C(F)F)c(C(=O)Nc2ccc3c(c2)OC(F)(F)O3)c1F` , what is its reported logP?
### Response 2.94

### Prompt Would you mind telling me what logP value was observed for `Cn1nc(C(F)F)c(C(=O)Nc2ccccc2-c2cc(F)cc(F)c2)c1F` ?
### Response 3.31

### Prompt Dear colleague, I am looking for the recorded logP of the following compound: CCCC(C)c1ccccc1NC(=O)c1c(C(F)F)nn(C)c1Cl (centres unmarked)
### Response 3.77

### Prompt // logP lookup, key: `Cn1nc(C(F)F)c(C(=O)Nc2cccc3c2CCCC3)c1Cl`
### Response 3.31

### Prompt Look up logP: `Cn1nc(C(F)F)c(C(=O)Nc2ccccc2OCc2ccc(Cl)cc2Cl)c1Cl`
### Response 4.81

### Prompt // logP lookup, key: `CCOc1ccc(NC(=O)c2c(C(F)F)nn(C)c2Cl)cc1OCC`
### Response 2.70

----------
- assay method text: logP by HPLC on reversed-phase column (EEC Directive 79/831 Annex V.A8)
- assay conditions: HPLC on reversed-phase column (C 18), EEC Directive 79/831 Annex V.A8
Here, each record is paired with measured logP data.
Lab note: jot the number down without any unit.

Consider the reported logP for these molecules:
- molecule: "Cn1nc(C(F)F)c(C(=S)Nc2ccccc2CC[Si](C)(C)C)c1Cl [Example 25]"
  outcome measure: "logP"
  test result: 4.56
- molecule: "Cn1nc(C(F)F)c(C(=O)Nc2ccccc2-c2ccc(F)c(Cl)c2)c1Cl [compound 103]"
  outcome measure: "logP"
  test result: 3.85
- molecule: "Cn1nc(C(F)F)c(C(=O)Nc2cccc3c2CCCC3)c1F [compound 56]"
  outcome measure: "logP"
  test result: 3.08
- molecule: "Cc1ccccc1-c1ccccc1NC(=O)c1c(C(F)F)nn(C)c1F [Example 75]"
  outcome measure: "logP"
  test result: 3.74
- molecule: "Cn1nc(C(F)F)c(C(=S)Nc2ccccc2-c2ccc(C(F)(F)F)c(F)c2)c1Cl [Example 151]"
  outcome measure: "logP"
  test result: 4.06

### Prompt Any idea what logP was measured for Cn1nc(C(F)F)c(C(=O)Nc2ccccc2Br)c1F [compound 43] ?
### Response 2.82

### Prompt Given CC(C)c1cccc(-c2ccccc2NC(=O)c2c(C(F)F)nn(C)c2F)c1 [compound 93] , state its recorded logP.
### Response 4.30

### Prompt Can you share its logP? I mean this molecule: Cn1nc(C(F)F)c(C(=O)Nc2cccc(OCC(C)(C)C)c2)c1Cl [compound 183]
### Response 4.19

### Prompt Consider the molecule Cn1nc(C(F)F)c(C(=O)Nc2ccccc2CCC(C)(C)C)c1F [Example 13] and give its measured logP.
### Response 3.83

----------
Overview of reported logP across a group of compounds:
- assay method text: logP by HPLC on reversed-phase column (EEC Directive 79/831 Annex V.A8)
- assay conditions: HPLC on reversed-phase column (C 18), EEC Directive 79/831 Annex V.A8
When you answer, write just the number.

Example compounds with recorded logP:
- compound: "Cn1nc(C(F)F)c(C(=O)Nc2cccc(-c3cc(F)cc(F)c3)c2)c1F"
  outcome measure: "logP"
  test result: 3.62
- compound: "C=C(C)COc1cccc(NC(=O)c2c(C(F)F)nn(C)c2Cl)c1"
  outcome measure: "logP"
  test result: 3.33
- compound: "Cn1nc(C(F)F)c(C(=O)Nc2ccccc2-c2ccc(Cl)cc2Cl)c1Cl"
  outcome measure: "logP"
  test result: 4.24
- compound: "Cn1nc(C(F)F)c(C(=O)Nc2ccc(F)cc2OCC(C)(C)C)c1F"
  outcome measure: "logP"
  test result: 4.08
- compound: "Cn1nc(C(F)F)c(C(=O)Nc2ccccc2OCc2ccccc2)c1F"
  outcome measure: "logP"
  test result: 3.67

### Prompt Fill in: logP of `Cn1nc(C(F)F)c(C(=O)Nc2cccc(-c3ccc([Si](C)(C)C)cc3)c2)c1F` is ___
### Response 5.03

### Prompt Name the reported logP value associated with the compound `Cn1nc(C(F)F)c(C(=O)Nc2ccccc2-c2ccc(-c3ccccc3)cc2)c1F`
### Response 4.27

### Prompt Quick one: logP for `C#CCOc1ccccc1NC(=O)c1c(C(F)F)nn(C)c1F` ?
### Response 2.71

### Prompt Please report the recorded logP for `CCOc1ccc(NC(=O)c2c(C(F)F)nn(C)c2F)cc1OCC` .
### Response 2.54

### Prompt Form field: reported logP of Cn1nc(C(F)F)c(C(=S)Nc2ccccc2C2CC2C2CC2)c1Cl (single isomer, unassigned) [Example 50]
### Response 3.81

### Prompt Fill blank: measured logP of the compound `Cn1nc(C(F)F)c(C(=O)Nc2ccccc2C(C)(C)C)c1Cl` is ____.
### Response 3.21

### Prompt Query: logP; subject: `Cn1nc(C(F)F)c(C(=O)Nc2cccc3c2CCC3)c1F`
### Response 2.94

### Prompt Which logP is reported for this compound? `Cn1nc(C(F)F)c(C(=O)Nc2cccc3c2OC(F)(F)O3)c1F`
### Response 2.77

### Prompt // query logP value for entry `Cn1nc(C(F)F)c(C(=O)Nc2ccccc2-c2ccc(Br)c(Cl)c2)c1Cl`
### Response 4.19

### Prompt Given Cn1nc(C(F)F)c(C(=O)Nc2ccccc2OC(F)(F)C(F)C(F)(F)F)c1F (stereo not drawn) , state its recorded logP.
### Response 3.48

### Prompt Need logP, item `C/C(=N\OC(C)(C)C)c1ccc(-c2ccccc2NC(=O)c2c(C(F)F)nn(C)c2Cl)cc1`
### Response 5.54

### Prompt Could you tell me which logP is on file for `Cn1nc(C(F)F)c(C(=O)Nc2ccccc2CC[Si](C)(C)C)c1Cl` ?
### Response 4.36

### Prompt Request the reported logP associated with `Cn1nc(C(F)F)c(C(=O)Nc2ccc3c(c2)OC(F)(F)O3)c1Cl`
### Response 3.11
